Quick reference for IC50 among some compounds
- measured target: human Slo3 (Homo sapiens)
- Construct: expressed in transfected cells; host or cells: CHO cells, transient co-transfection with pcDNA3.1(+) vectors
- Sequence (A8MYU2 1-1149): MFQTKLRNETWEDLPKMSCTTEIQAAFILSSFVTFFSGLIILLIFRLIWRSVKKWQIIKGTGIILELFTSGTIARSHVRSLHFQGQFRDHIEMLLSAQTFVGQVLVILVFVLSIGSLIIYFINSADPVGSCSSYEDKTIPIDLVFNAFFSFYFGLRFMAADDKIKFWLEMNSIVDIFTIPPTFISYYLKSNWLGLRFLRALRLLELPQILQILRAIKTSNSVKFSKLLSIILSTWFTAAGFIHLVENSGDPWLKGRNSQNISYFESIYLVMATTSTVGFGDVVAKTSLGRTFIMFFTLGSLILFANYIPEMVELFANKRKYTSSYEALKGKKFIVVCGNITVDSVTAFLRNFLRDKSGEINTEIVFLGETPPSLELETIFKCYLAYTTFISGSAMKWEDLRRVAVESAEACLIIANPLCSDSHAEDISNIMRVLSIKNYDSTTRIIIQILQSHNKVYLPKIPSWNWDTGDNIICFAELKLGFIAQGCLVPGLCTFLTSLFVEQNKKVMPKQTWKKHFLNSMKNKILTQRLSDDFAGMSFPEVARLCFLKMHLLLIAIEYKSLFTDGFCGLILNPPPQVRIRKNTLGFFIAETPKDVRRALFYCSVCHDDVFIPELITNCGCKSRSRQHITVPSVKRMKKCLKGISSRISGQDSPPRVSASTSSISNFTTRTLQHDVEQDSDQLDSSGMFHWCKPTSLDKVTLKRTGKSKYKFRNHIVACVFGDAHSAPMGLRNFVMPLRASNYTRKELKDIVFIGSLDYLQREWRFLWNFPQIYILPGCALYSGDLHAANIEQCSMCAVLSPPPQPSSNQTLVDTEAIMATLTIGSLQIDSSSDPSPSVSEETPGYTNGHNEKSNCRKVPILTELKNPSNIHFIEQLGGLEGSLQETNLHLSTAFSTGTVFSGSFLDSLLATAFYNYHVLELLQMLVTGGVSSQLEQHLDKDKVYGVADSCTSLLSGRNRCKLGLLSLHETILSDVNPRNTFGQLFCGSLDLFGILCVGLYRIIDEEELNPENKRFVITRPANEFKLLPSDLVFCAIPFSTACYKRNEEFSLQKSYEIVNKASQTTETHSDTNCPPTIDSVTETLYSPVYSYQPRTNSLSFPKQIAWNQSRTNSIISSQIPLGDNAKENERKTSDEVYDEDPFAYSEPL
- Sequence (Q8N7C0 24-313 partner): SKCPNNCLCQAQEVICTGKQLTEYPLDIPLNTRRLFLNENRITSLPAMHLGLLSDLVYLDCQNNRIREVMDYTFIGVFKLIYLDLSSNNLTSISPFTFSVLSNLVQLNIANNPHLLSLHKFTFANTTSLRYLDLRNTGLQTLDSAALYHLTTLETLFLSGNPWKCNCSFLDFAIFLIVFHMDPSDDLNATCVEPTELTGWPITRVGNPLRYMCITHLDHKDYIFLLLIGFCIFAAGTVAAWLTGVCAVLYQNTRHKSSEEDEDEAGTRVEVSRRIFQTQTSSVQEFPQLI
- assay summary: Whole-cell patch-clamp of Slo3 currents in CHO cells co-expressing human Slo3 and LRRC52
- Format: cell-based
The reply should be a number in µM, with the unit left off.

C[C@]12CC[C@H]3[C@@H](CCC4=CC(=O)CC[C@@]43C)[C@@H]1CC[C@@H]2O [testosterone]    17

[Q] human Slo3 (Homo sapiens) / IC50 / C[C@]12CC[C@H](O)CC1=CC[C@@H]1[C@@H]2CC[C@]2(C)C(=O)CC[C@@H]12 [DHEA, dehydroepiandrosterone] : value?
[A] 41

[Q] human Slo3 (Homo sapiens) / IC50 / C[C@]12CC[C@@H]3c4ccc(O)cc4CC[C@H]3[C@@H]1CC[C@@H]2O [estradiol] : value?
[A] 8.9
